Values from ChEMBL document CHEMBL2385005

Quick reference: pEC50 of the listed items.
Target: Bile acid receptor (Homo sapiens, UniProt Q96RI1)
Sequence (Q96RI1 whole entry): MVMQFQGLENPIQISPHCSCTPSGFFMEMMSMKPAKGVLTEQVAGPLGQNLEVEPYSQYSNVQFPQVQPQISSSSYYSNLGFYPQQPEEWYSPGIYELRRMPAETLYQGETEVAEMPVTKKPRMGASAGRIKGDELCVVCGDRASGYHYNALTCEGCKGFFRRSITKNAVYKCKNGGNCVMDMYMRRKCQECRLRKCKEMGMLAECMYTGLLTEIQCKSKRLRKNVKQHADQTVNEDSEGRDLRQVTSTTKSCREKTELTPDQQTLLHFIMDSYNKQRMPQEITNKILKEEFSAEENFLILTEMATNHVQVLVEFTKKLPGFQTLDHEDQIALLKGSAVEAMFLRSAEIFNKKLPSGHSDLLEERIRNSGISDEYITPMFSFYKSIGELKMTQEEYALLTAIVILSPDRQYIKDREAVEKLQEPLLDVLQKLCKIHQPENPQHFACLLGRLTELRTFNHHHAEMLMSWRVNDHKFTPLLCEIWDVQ
Assay: Antagonist activity at FXR (unknown origin) expressed in human HepG2 cells co-expressing RXR assessed as inhibition of CDCA-induced transactivation after 18 hrs by luciferase reporter gene assay
Assay type: cell-based
pEC50 is defined as minus the log10 of a concentration measured in mol/L.

CC1(C)CCC[C@]2(C)[C@H]3CC[C@H](O)[C@H](CCc4ccoc4)[C@@]3(C)CC[C@@H]12: 4.60

Proceed to the following item.
Please look up its pEC50: CC1(C)CCC[C@]2(C)[C@H]3CC/C(=C\OS(=O)(=O)[O-])[C@H](CCc4ccoc4)[C@@]3(C)CC[C@@H]12.[Na+] [SUVANINE'S SODIUM SALT]
4.62
